Ref: ChEMBL document CHEMBL2203237

Tested on: Human alphaherpesvirus 1
method: Ratio of acyclovir EC50 to compound EC50 for Herpes simplex virus type 1
Format: functional
Record form. Attribute: ratio. Fill in for each entry.

**Query** // query ratio value for entry "CC(=O)OC[C@H]1O[C@@H](n2ccc(O)c(-c3ccc(-c4ccccc4)cc3)c2=O)[C@H](OC(C)=O)[C@@H]1OC(C)=O"
**Result** 67

**Query** // query ratio value for entry "COc1ccc(-c2c(O)ccn([C@@H]3O[C@H](CO)[C@@H](O)[C@H]3O)c2=O)cc1"
**Result** 3.8

**Query** // query ratio value for entry "COc1ccc(-c2c(O)ccn([C@@H]3O[C@H](COC(C)=O)[C@@H](OC(C)=O)[C@H]3OC(C)=O)c2=O)cc1"
**Result** 7.2

**Query** // query ratio value for entry "CC(=O)OC[C@H]1O[C@@H](n2ccc(O)c(-c3ccc(C4CCCCC4)cc3)c2=O)[C@H](OC(C)=O)[C@@H]1OC(C)=O"
**Result** 45

**Query** // query ratio value for entry "COc1ccc(-c2c(O)ccn([C@@H]3O[C@H](COC(C)=O)[C@@H](OC(C)=O)[C@H]3OC(C)=O)c2=O)cc1OC"
**Result** 2.1

---

Record form. Attribute: CC50 at 72 h. Fill in for each entry.
method: Cytotoxicity against african green monkey Vero cells after 3 days by neutral red dye method
Type: cell-based
settings: chlorocebus sabaeus

**Query** // query CC50 at 72 h value for entry "CC(=O)OC[C@H]1O[C@@H](n2ccc(O)c(-c3ccc(C)cc3)c2=O)[C@H](OC(C)=O)[C@@H]1OC(C)=O"
**Result** > 400 µM

**Query** // query CC50 at 72 h value for entry "CC(=O)OC[C@H]1O[C@@H](n2ccc(O)c(-c3ccc(C(C)(C)C)cc3)c2=O)[C@H](OC(C)=O)[C@@H]1OC(C)=O"
**Result** > 200 µM

**Query** // query CC50 at 72 h value for entry "CC(=O)OC[C@H]1O[C@@H](n2ccc(O)c(CCc3ccccc3)c2=O)[C@H](OC(C)=O)[C@@H]1OC(C)=O"
**Result** > 400 µM

**Query** // query CC50 at 72 h value for entry "COc1c(C)cc(-c2c(O)ccn([C@@H]3O[C@H](CO)[C@@H](O)[C@H]3O)c2=O)cc1C"
**Result** > 200 µM

---

method: Cytotoxicity against african green monkey Vero cells after 3 days by neutral red dye method
Assay type: cell-based
settings: chlorocebus sabaeus
observed-property: CC50 at 72 h

**Query** // query CC50 at 72 h value for entry "CC(=O)OC[C@H]1O[C@@H](n2ccc(O)c(-c3ccccc3)c2=O)[C@H](OC(C)=O)[C@@H]1OC(C)=O"
**Result** > 400 µM

**Query** // query CC50 at 72 h value for entry "CC(=O)OC[C@H]1O[C@@H](n2c(=O)cc(O)c3ccccc32)[C@H](OC(C)=O)[C@@H]1OC(C)=O"
**Result** > 200 µM

**Query** // query CC50 at 72 h value for entry "O=c1cc(O)c(-c2ccccc2)cn1[C@@H]1O[C@H](CO)[C@@H](O)[C@H]1O"
**Result** > 200 µM

**Query** // query CC50 at 72 h value for entry "CC(=O)OC[C@H]1O[C@@H](n2ccc(O)c(-c3ccc(-c4ccccc4)cc3)c2=O)[C@H](OC(C)=O)[C@@H]1OC(C)=O"
**Result** > 200 µM
